The values you see were collected from patent US20240400654A1.

targetDesc: HRgpA-6H (Porphyromonas gingivalis) (UniProt P28784)
protocolDescription: ELISA, FASEBA screening, coated HRgpA-6H; variant OD over parental WT Fab OD
For each of the binders below, state its Ratio OD(Variant)/OD(WT).

Challenge: I am curious: what Ratio OD(Variant)/OD(WT) value has been reported for KB001 parental mouse Fab FASEBA variant VH N100Q (Fab, V domains shown) VH: EVQLKQSGPGLVAPSQSLSITCTVSGFSLSIYSVHWVRQPPGKGLEWLGMIWGGGSSDYNSALKSRLSISKDNSKSQVFLKMNSLQTDDTAMYYCARNGQFYAMDYWGQGTSVTVSS VL: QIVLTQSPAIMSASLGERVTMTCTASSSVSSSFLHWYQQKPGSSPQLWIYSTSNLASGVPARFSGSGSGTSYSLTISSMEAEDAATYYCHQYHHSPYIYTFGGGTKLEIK ?
Response given: 0.999

Challenge: I am curious: what Ratio OD(Variant)/OD(WT) value has been reported for KB001 parental mouse Fab FASEBA variant VH N100R (Fab, V domains shown) VH: EVQLKQSGPGLVAPSQSLSITCTVSGFSLSIYSVHWVRQPPGKGLEWLGMIWGGGSSDYNSALKSRLSISKDNSKSQVFLKMNSLQTDDTAMYYCARNGRFYAMDYWGQGTSVTVSS VL: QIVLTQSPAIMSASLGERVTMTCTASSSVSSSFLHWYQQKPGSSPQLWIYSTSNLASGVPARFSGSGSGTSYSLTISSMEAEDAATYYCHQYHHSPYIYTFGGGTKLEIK ?
Response given: 0.93
